Measured recovered UCHL1 activity after rapid dilution of individual entries
SYSTEM: UCHL1 (Homo sapiens, UniProt P09936)
Sequence (P09936 whole entry): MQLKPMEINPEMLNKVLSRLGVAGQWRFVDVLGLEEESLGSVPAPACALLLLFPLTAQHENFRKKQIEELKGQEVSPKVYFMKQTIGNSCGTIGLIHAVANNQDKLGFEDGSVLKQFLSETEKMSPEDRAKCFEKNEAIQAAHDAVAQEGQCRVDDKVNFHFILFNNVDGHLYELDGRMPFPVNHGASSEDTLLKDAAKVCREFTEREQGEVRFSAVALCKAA
TEST_METHOD_NOTES: Rapid dilution reversibility assay
Type: biochemical
CONDITION_SET: incubated at ten times IC50, diluted 100-fold; normalized to DMSO
QUANTITY_MEASURED: recovered UCHL1 activity after rapid dilution

[[record]]
compound = "COC(=O)C1=CO[C@@H](C)[C@@H]2CN3CCc4c([nH]c5ccc(OC)cc45)[C@@H]3C[C@H]12 [(-)-aricine]"
endpoint_value = "> 80%"

[[record]]
compound = "CC1=C(O)C(=O)C=C2C1=CC=C1[C@@]2(C)CC[C@@]2(C)[C@@H]3C[C@](C)(C(=O)O)CC[C@]3(C)CC[C@]12C"
endpoint_value = "> 80%"

[[record]]
compound = "CCN1C(=O)C=CC1=O [NEM, N-ethylmaleimide, reference compound]"
endpoint_value = "3.9%"

[[record]]
compound = "O=c1c2cc(O)c(O)cc2oc2cc(O)c([C@@H]3O[C@H](CO)[C@@H](O)[C@H](O)[C@H]3O)c(O)c12"
endpoint_value = "> 80%"

[[record]]
compound = "CC(=O)Oc1c2c(c(CC=C(C)C)c3c1C(=O)C1=C[C@@H]4CC5C(C)(C)OC(C/C=C(\\C)C(=O)O)(C4=O)[C@@]15O3)OC(C)(CCC=C(C)C)C=C2 (some centres unmarked)"
endpoint_value = "> 80%"


---

SYSTEM: UCHL1 (Homo sapiens, UniProt P09936)
TEST_METHOD_NOTES: Ub-AMC assay with recombinant UCHL1
Type: biochemical
CONDITION_SET: Ub-AMC as substrate
QUANTITY_MEASURED: IC50

[[record]]
compound = "COC(=O)C1=CO[C@@H](C)[C@@H]2CN3CCc4c([nH]c5ccc(OC)cc45)[C@@H]3C[C@H]12 [(-)-aricine]"
endpoint_value = "47.7 µM"

